- experimentSummary: Inhibition of Haemophilus influenzae phenylalanyl-tRNA synthetase
pIC50: −log10 of the molar value.
readoutLabel: pIC50

The examples below pair each entry with its known result.
Cc1cc(C(=O)N2CCN(C(=O)C3CCCO3)CC2)ccc1CC(O)c1cccc(Cl)c1 (stereo unspecified) | 6.55
Clc1cccc(COc2cnc(-c3nnco3)cc2Cl)c1 | 4.92
COC(=O)c1ccc(CNc2cccc(Cl)c2)cc1 | 4.24

[1] COC(=O)c1ccc(OCc2cccc(Cl)c2)c(C)c1
[2] CC(CO)NC(=O)c1ccc(OCc2cc(Cl)ccn2)c(Cl)c1 (stereo unspecified)
[3] NC(=O)c1nnc(-c2cc(Cl)c(OCc3cccc(Cl)c3)cn2)o1
[4] Clc1cccc(COc2ccc(-c3nnco3)cc2Cl)c1
[5] COC(=O)c1ccc(OCc2ccc(F)c(F)c2)c(Cl)c1
QUERY: Could you please sort these 5 entries by pIC50 from high to low? Give the labels in the order requested.
RESULT: 5, 1, 3, 2, 4
(5: 8.06, 1: 7.47, 3: 5.57, 2: 5.34, 4: 4.96)

* * *

- experimentSummary: Inhibition of Haemophilus influenzae phenylalanyl-tRNA synthetase
readoutLabel: IC50 (µM)

Consider the reported IC50 for these compounds:
COC(=O)c1ccc(OCc2cccc(Cl)c2)cc1 | 3.1
CN1CCN(C(=O)c2ccc(OCc3cccc(Cl)c3)c(Cl)c2)CC1=O | 0.038
O=C(O)Cc1nnc(-c2ccc(OCc3cccc(Cl)c3)c(Cl)c2)o1 | 11
CN1CCN(C(=O)c2ccc(OCc3cccc(Cl)c3)c(Cl)c2)CC1 | 0.15

[P] O=C(NCCCCO)c1ccc(OCc2cc(Cl)ccn2)c(Cl)c1
[Q] O=C(NC1CCC(O)CC1)c1cc(Cl)c(OCc2cccc(Cl)c2)cn1 (stereo not given)
QUERY: Could you please tell me which of these two has the higher IC50: P or Q ? Output the label that corresponds to your choice.
RESULT: P
(P: 16 µM, Q: 1.5 µM)

* * *

- experimentSummary: Inhibition of Haemophilus influenzae phenylalanyl-tRNA synthetase
readoutLabel: IC50 (µM)

[I] O=C(NCC1CC1)c1cc(Cl)c(OCc2cccc(Cl)c2)cn1
[II] COC(=O)c1ccc(/C=C/c2cccc(Cl)c2)c(C)c1
QUERY: Which of the two gives a bigger number for IC50: I or II ? Answer by quoting the chosen item's label.
RESULT: I
(I: 30 µM, II: 0.13 µM)

* * *

- Test system: Haemophilus influenzae
- experimentSummary: Antibacterial activity against wild type Haemophilus influenzae
- Type: functional
readoutLabel: MIC (mg/L)

CS(=O)(=O)c1nnc(-c2ccc(OCc3cccc(Cl)c3)c(Cl)c2)o1 | 32
CC(CO)NC(=O)c1ccc(OCc2cc(Cl)ccn2)c(Cl)c1 (centres undefined) | 32
O=C(NCCN1CCOCC1)c1cc(Cl)c(OCc2cccc(Cl)c2)cn1 | 32

* * *

- testedOn: hERG (KCNH2) (Homo sapiens, UniProt Q12809)
- Sequence (Q12809 whole entry): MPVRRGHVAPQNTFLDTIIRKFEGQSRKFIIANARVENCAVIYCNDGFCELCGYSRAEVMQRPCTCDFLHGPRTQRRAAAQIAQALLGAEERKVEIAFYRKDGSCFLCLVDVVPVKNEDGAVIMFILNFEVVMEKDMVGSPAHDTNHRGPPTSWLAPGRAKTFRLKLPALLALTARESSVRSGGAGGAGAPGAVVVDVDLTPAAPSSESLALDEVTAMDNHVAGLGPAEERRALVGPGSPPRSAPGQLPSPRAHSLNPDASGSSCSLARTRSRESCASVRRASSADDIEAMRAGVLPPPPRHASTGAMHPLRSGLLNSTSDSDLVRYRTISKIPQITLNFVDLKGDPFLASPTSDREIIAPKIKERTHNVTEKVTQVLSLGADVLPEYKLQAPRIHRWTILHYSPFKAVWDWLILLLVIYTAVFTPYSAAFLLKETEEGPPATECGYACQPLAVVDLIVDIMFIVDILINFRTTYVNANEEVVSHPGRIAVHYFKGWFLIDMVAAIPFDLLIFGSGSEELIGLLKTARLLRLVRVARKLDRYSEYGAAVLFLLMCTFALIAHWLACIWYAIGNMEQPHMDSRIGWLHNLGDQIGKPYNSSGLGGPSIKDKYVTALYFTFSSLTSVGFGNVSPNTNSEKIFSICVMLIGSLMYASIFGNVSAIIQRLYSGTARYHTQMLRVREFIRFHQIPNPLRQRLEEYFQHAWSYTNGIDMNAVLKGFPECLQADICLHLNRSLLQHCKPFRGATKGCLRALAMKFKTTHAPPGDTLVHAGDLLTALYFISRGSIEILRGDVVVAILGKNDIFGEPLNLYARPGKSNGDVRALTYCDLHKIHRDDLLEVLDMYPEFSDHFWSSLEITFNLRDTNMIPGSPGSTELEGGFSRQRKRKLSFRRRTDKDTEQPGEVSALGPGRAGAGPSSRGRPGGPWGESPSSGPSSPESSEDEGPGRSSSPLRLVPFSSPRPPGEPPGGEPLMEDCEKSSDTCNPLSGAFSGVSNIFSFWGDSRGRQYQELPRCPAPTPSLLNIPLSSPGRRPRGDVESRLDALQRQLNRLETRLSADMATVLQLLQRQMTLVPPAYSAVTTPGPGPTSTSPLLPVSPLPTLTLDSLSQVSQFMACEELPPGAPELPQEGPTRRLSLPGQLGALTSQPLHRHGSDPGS
- experimentSummary: Displacement of [3H]dofetilide from human ERG channel at 10 nM
- testConditions: probe [3H]dofetilide, read-out: Activity
readoutLabel: inhibition at 0.01 µM (%)
Please give a number only; it is taken to be in %.

Entry CC(=O)NC1CCN(Cc2ccc(OCc3ccc(Cl)cc3)c(Cl)c2)C1 (stereo unspecified) , inhibition at 0.01 µM reported as 89

* * *

- experimentSummary: Inhibition of Haemophilus influenzae phenylalanyl-tRNA synthetase
readoutLabel: IC50 (µM)

Cc1ccc(C(=O)N2CCN(S(=O)(=O)c3ccc(OCc4cccc(Cl)c4)c(Cl)c3)CC2)cc1 | 1.9

[1] CC(=O)NC1CCN(Cc2ccc(OCc3ccc(Cl)cc3)c(Cl)c2)C1 (stereo not given)
[2] NC(=O)c1nnc(-c2ccc(OCc3cccc(Cl)c3)c(Cl)c2)o1
[3] Cc1cc(C(=O)N2CCC(C(N)=O)CC2)ccc1OCc1cccc(Cl)c1
[4] O=C(NCCN1CCOCC1)c1ccc(OCc2cccc(Cl)c2)c(Cl)c1
QUERY: Hey, quick one: sort these by IC50, largest value first please. Give me the labels in the order the question wants.
RESULT: 4, 2, 1, 3
(4: 14 µM, 2: 2.6 µM, 1: 0.24 µM, 3: 0.15 µM)

* * *

- experimentSummary: Membrane permeability by PAMPA
- Assay type: ADME
- testConditions: read-out: Activity
readoutLabel: Papp (×10⁻⁶ cm/s)

O=C(NCCCCO)c1ccc(OCc2cccc(Cl)c2)c(Cl)c1 | 1.22

[a] Cc1cc(C(=O)N2CCN(C(=O)C3CCCO3)CC2)ccc1OCc1cccc(Cl)c1 (centres undefined)
[b] Clc1cccc(COc2cnc(-c3nnco3)cc2Cl)c1
[c] CN1CCN(C(=O)c2ccc(OCc3cccc(Cl)c3)c(Cl)c2)CC1=O
QUERY: List items by Papp in falling order. Answer format: the labels, ordered as requested.
RESULT: c, a, b
(c: 16.4 ×10⁻⁶ cm/s, a: 10.8 ×10⁻⁶ cm/s, b: 5.31 ×10⁻⁶ cm/s)

* * *

- experimentSummary: Apparent intrinsic clearance in human liver microsomes
- Format: ADME, Microsome
readoutLabel: CLint scaled (mL/min/kg)

[I] Cc1cc(C(=O)N2CCN(C(=O)C3CCCO3)CC2)ccc1OCc1cccc(Cl)c1 (stereo not given)
[II] CC(=O)NC1CCN(Cc2ccc(OCc3ccc(Cl)cc3)c(Cl)c2)C1 (stereo not given)
QUERY: I'd appreciate it if you could identify which of I and II has the greater CLint scaled. # reply format: chosen label
RESULT: I
(I: 55.1 mL/min/kg, II: 9.63 mL/min/kg)

* * *

- experimentSummary: Inhibition of Haemophilus influenzae phenylalanyl-tRNA synthetase
pIC50: −log10 of the molar value.
readoutLabel: pIC50

# annotated cases, reported pIC50 shown
CN1CCN(C(=O)c2ccc(COc3cccc(Cl)c3)c(Cl)c2)CC1 | 6.08
COC(=O)c1ccc(OCc2cc(F)cc(F)c2)c(Cl)c1 | 7.52
CCc1nnc(-c2ccc(OCc3cccc(Cl)c3)c(Cl)c2)o1 | 4.96
O=C(NCCCCO)c1ccc(OCc2cccc(Cl)c2)c(Cl)c1 | 4.66
Cc1nnc(-c2ccc(OCc3cccc(Cl)c3)c(Cl)c2)o1 | 5.18
CS(=O)(=O)c1nnc(-c2ccc(OCc3cccc(Cl)c3)c(Cl)c2)o1 | 5.68

[I] COC(=O)c1ccc(OCc2cccc(Cl)c2)c(Cl)c1
[II] Cc1cc(C(=O)N2CCC(C(N)=O)CC2)ccc1CCc1cccc(Cl)c1
[III] CSc1nnc(-c2ccc(OCc3cccc(Cl)c3)c(Cl)c2)o1
[IV] COC(=O)c1ccc(NCc2cccc(Cl)c2)c(C)c1
[V] Cc1cc(C(=O)N2CCN(C(=O)C3CCCO3)CC2)ccc1OCc1cccc(Cl)c1 (stereo unspecified)
QUERY: List these items ordered by pIC50, big to small. Write the labels out in the order the request specifies.
RESULT: I, V, II, IV, III
(I: 7.77, V: 7.17, II: 6.44, IV: 5.46, III: 5.26)

* * *

- experimentSummary: Inhibition of Haemophilus influenzae phenylalanyl-tRNA synthetase
pIC50: −log10 of the molar value.
readoutLabel: pIC50

CCN(CC)CCN(C)S(=O)(=O)c1ccc(OCc2cccc(Cl)c2)c(Cl)c1 | 5.72
NC(=O)Cc1nnc(-c2ccc(OCc3cccc(Cl)c3)c(Cl)c2)o1 | 5.77

[P] O=C(NCCN1CCOCC1)c1cc(Cl)c(OCc2cccc(Cl)c2)cn1
[Q] CN1CCN(C(=O)c2ccc(C[S+]([O-])c3cccc(Cl)c3)c(Cl)c2)CC1=O (stereo unspecified)
QUERY: Field: lower recorded pIC50 (choose P or Q ) Indicate your choice by writing its label.
RESULT: P

* * *

- experimentSummary: Inhibition of Streptococcus pneumoniae phenylalanyl-tRNA synthetase
readoutLabel: IC50 (µM)

Example entries and their recorded answers appear below.
COC(=O)c1ccc(OCc2cc(F)cc(F)c2)c(Cl)c1 | 0.16
CCn1nccc1NC(=O)c1cc(Cl)c(OCc2cccc(Cl)c2)cn1 | 34
O=C(NCCN1CCOCC1)c1cc(Cl)c(OCc2cccc(Cl)c2)cn1 | 65
CC(=O)NC1CCN(Cc2ccc(OCc3ccc(Cl)cc3)c(Cl)c2)C1 (stereo not given) | 2.2
Cc1cc(C(=O)N2CCN(C(=O)C3CCCO3)CC2)ccc1OCc1cccc(Cl)c1 (stereo not given) | 3.7

[A] O=C(NCCCCO)c1ccc(OCc2cc(Cl)ccn2)c(Cl)c1
[B] COC(=O)c1ccc(/C=C/c2cccc(Cl)c2)c(C)c1
[C] CCN(CC)CCN(C)S(=O)(=O)c1ccc(OCc2cccc(Cl)c2)c(Cl)c1
[D] COC(=O)c1ccc(OCc2cccc(Cl)c2)c(Cl)c1
QUERY: Reorder: IC50, max to min. // list labels; follow requested order
RESULT: C, A, B, D

* * *

- experimentSummary: Inhibition of Haemophilus influenzae phenylalanyl-tRNA synthetase
pIC50: −log10 of the molar value.
Measured pIC50 by item

The following molecules have reported results that may help.
C[S+]([O-])c1nnc(-c2ccc(OCc3cccc(Cl)c3)c(Cl)c2)o1 (stereo not drawn) | 5.82
COC(=O)c1ccc(C(=O)Nc2cccc(Cl)c2)cc1 | < 4.19

Form field pIC50, entry Cc1cc(C(=O)N2CCN(C)C(=O)C2)ccc1NS(=O)(=O)c1cccc(Cl)c1 : < 4.19
